Note to self: these molecules have pKi reported for Beta-secretase 1 (Homo sapiens) in various publications.
pKi: −log10 of the molar value.
Rule: pKi under 7 gives class 0, otherwise class 1.

Solved cases (8 shown):
Q) Determine whether this molecule has pKi no lower than 7: `C[C@@]1(F)C[C@H](F)[C@@](C)(c2cc(NC(=O)c3ccn(C(F)F)n3)ccc2F)N=C1N`
A) class 1

Q) Could you please find out whether `CN1C(=N)N[C@](C)(c2cc(NC(=O)c3ccc(OC(F)F)cn3)ccc2F)C2(CC2)S1(=O)=O` has pKi that meets 7 or exceeds it?
A) class 1

Q) Quick check: does `C[C@@]1(c2sc(Br)cc2Cl)CS(=O)(=O)C2(CCCCC2)C(=N)N1` have pKi greater than or equal to 7?
A) class 0

Q) Decide: is the reported value of pKi for `COc1cnc2c(Nc3ccc4c(c3)[C@@]3(C)NC(=N)N(C)S(=O)(=O)[C@H]3CCC4)ccnc2n1` equal to or greater than 7?
A) class 0

Q) Check this molecule for pKi at or above 7: `CN1C(=N)N[C@](C)(c2sc(-c3cccc(-c4ccno4)c3)cc2F)CS1(=O)=O`
A) class 1

Q) For this molecule, is measured pKi 7 or higher? `Cc1ccc(C(=O)Nc2ccc(F)c([C@]34CCC[C@H]3S(=O)(=O)N(C)C(=N)N4)c2)nc1`
A) class 1

Q) Given the entry `CN1C(=N)N[C@](C)(c2sc3c(-c4ccc(N5CCOCC5)nc4)cccc3c2F)CS1(=O)=O` , answer whether its pKi meets or surpasses 7.
A) class 0

Q) pKi >= 7 for `C[C@@]1(c2cc(NC(=O)c3ccc(C(F)(F)F)cn3)ccc2F)CS(=O)(=O)C2(CCCCC2)C(=N)N1` ?
A) class 1

Others:
Q) Could you please find out whether `C[C@@]1(S(C)(=O)=O)CC[C@@](CF)(c2cc(NC(=O)c3cc4c(cn3)OC(F)(F)O4)ccc2F)N=C1N` has pKi that meets 7 or exceeds it?
A) class 1

Q) Does the reported pKi for `Cc1nc(N2C[C@H]3C(=O)N(C)C(=N)N[C@@]3(c3ccc(Cl)s3)C2)nc(C2CC2)c1Cl` fall at or above the 7 mark?
A) class 1

###

What follows is literature data on Ki for Beta-secretase 1 (Homo sapiens, UniProt P56817).
Response field class: string, computed from recorded Ki by ranges low: < 20 nM; medium: ≥ 20 nM and < 200 nM; high: ≥ 200 nM

Field: example entries. Status: answers known.
Q) Returns: class label. Input: `CN1C(=N)N[C@](C)(c2sc(-c3nnc(-c4ccc(C5(C#N)COC5)cc4)o3)cc2Cl)CS1(=O)=O`
A) high

Q) Just checking, what class would you give `CN1C(=N)N[C@](C)(c2cc(NC(=O)c3cn(C)nc3C(F)(F)F)ccc2F)C2(CC2)S1(=O)=O` here?
A) high

Q) Which band does `Cc1ncc2c(n1)C[C@@](C)(c1cc(-c3cccc(C#N)c3)cs1)NC2=N` fall in?
A) medium

Q) Form field 'band' for `CN1C(=N)N[C@](C)(c2sc(-c3cccc(-c4cc[nH]n4)c3)cc2F)CS1(=O)=O`
A) low

Q) Entry `CCCc1cnn(-c2ccc(-c3nccc4c(Cl)c([C@]5(C)CS(=O)(=O)N(C)C(=N)N5)sc34)c(F)c2)c1` belongs to which category?
A) high

Others:
Q) Could you place `COc1nc(N2C[C@H]3C(=O)N(C)C(=N)N[C@@]3(c3ccc(F)cc3F)C2)nc(C2CC2)c1Cl` in its proper category? Many thanks.
A) low

Q) Which class does `CN1C(=N)N[C@](C)(c2sc(-c3cccc(-c4ncno4)c3)cc2F)CS1(=O)=O` fall in?
A) low

Q) Assign a category based on measured Ki for `CN1C(=N)N[C@](C)(c2sc(-c3cccc(-c4cnco4)c3)cc2F)CS1(=O)=O` and give only the class name.
A) low

Q) Which class holds `COc1ccc2c(c1)c1c(n2C(=O)c2ccc3ccccc3c2)CNCC1` ?
A) high

Q) Consider `C[C@]1(F)CC(F)(F)[C@@](C)(c2cc(NC(=O)c3nccs3)ccc2F)N=C1N` . To which Ki class does it belong?
A) medium

Q) Tag the class for `C[C@@]1(c2sc(-c3cccc(C(F)(F)F)c3)cc2Cl)CS(=O)(=O)C2(CCOCC2)C(=N)N1`
A) medium

Q) Hey, which category is O=C(Nc1ccc2ccccc2c1)C1CNCCc2c1[nH]c1ccccc21 (stereo not shown) in, do you know?
A) high

Q) Which category fits this record: `COc1cnc(C(=O)Nc2ccc(F)c([C@@]3(CF)N=C(N)CCC3(F)F)c2)cn1`
A) low

Q) Which class holds `CC1(C)C(=N)N[C@@]2(CCCc3ccc(NC(=O)c4cc5ccccn5n4)cc32)CS1(=O)=O` ?
A) high

Q) Which class holds `CN1CCC2(CC1)C(=N)N[C@](C)(c1cc(NC(=O)c3ccc(C#N)cn3)ccc1F)CS2(=O)=O` ?
A) low

Q) Determine which band this molecule sits in: COc1nc(N2CC3C(c4ccccc4)(C2)NC(=N)N(C)S3(=O)=O)nc(OC)c1F (racemic)
A) medium

Q) Kindly state the category for this molecule: COCC(=O)Nc1ccc(F)c(C23CCCC2S(=O)(=O)N(C)C(=N)N3)c1 (stereo not shown)
A) high

Q) Looking at `COc1cnc(C(=O)Nc2ccc(F)c([C@@]3(C)N=C(N)[C@](C)(F)CC3(F)F)c2)nc1` , which class would you pick?
A) medium

###

This section presents log10 Ki values reported for Beta-secretase 1 (Homo sapiens) in the literature.
Hey, these are logged values: log10 of Ki, µM being the unit before logging.

Q) Field request: log10 Ki | item: `CN1C(=N)N[C@](C)(c2sc(-c3nnc(-c4ccc(C(F)(F)F)c(F)c4)o3)cc2Cl)CS1(=O)=O`
A) -0.81

Q) Need log10 Ki of `CC1(C)C(=N)N[C@@]2(COCc3ccc(NC(=O)c4ccc(OCF)cn4)cc32)CS1(=O)=O` , thanks.
A) -1.24

Q) Need log10 Ki of `COc1ccc(C(=O)Nc2ccc(F)c([C@]3(C)CS(=O)(=O)C4(CN(S(C)(=O)=O)C4)C(=N)N3)c2)nc1` , thanks.
A) -2.19

Q) log10 Ki for `CN1C(=N)N[C@](C)(c2sc(-c3ccc(-c4ncco4)cc3)cc2Cl)CS1(=O)=O` ?
A) 0.63

Q) Reported log10 Ki for `COc1cnc(C(=O)Nc2cc(F)c(F)c([C@]34COC[C@H]3C[C@@](F)(CF)C(N)=N4)c2)cn1` : what is it?
A) -0.89

New cases:
Q) What measured log10 Ki goes with `C[C@@]1(c2cc(NC(=O)c3ncc(F)cc3F)ccc2F)CS(=O)(=O)C2(CCC2)C(=N)N1` ?
A) -1.90

###

// compounds with Ki on Beta-secretase 1 (Homo sapiens), multi-source literature
Just the number please, in nM, no unit attached.

Q) Record request: Ki value, item `COc1ccc(C(=O)Nc2ccc(F)c([C@]34COC[C@H]3S(=O)(=O)N(C)C(=N)N4)c2)nc1`
A) 18.2

Q) Sample `COc1cnc(C(=O)Nc2ccc3c(c2)[C@]2(CCC3)CS(=O)(=O)C(C)(C)C(=N)N2)cn1` — what was its Ki?
A) 92

Q) Name the reported Ki value associated with the compound `COc1ccc(C(=O)Nc2ccc(F)c([C@@]34COC[C@@H]3S(=O)(=O)N(C)C(=N)N4)c2)nc1`
A) 872

Q) Record request: Ki value, item `CN1CCC2(CC1)C(=N)N[C@](C)(c1cc(NC(=O)c3ccc(Cl)cn3)ccc1F)CS2(=O)=O`
A) 12

Continuing:
Q) So what does the record say about Ki for `CN1C[C@@](C)(c2cc(NC(=O)c3ccn(C)n3)ccc2F)NC(=N)C(C)(C)S1(=O)=O` ?
A) 271

###

What follows is literature data on pKi for Beta-secretase 1 (Homo sapiens).
pKi: −log10 of the molar value.

Q) What is its pKi for Beta-secretase 1 (Homo sapiens)? Entry: `O=C(c1ccc2ccccc2c1)n1c2c(c3cc(OCc4ccccc4OC(F)F)ccc31)CCNC2`
A) > 5.52

Q) Lab note: need pKi with Beta-secretase 1 (Homo sapiens) for entry O=C(Nc1ccc2ccccc2c1)NC1CNCCC1c1ccc(-c2ccccc2)cc1 (centres unmarked) , please look it up.
A) 4.52 to 5.52

Q) Under Beta-secretase 1 (Homo sapiens): pKi value of `Fc1ccccc1-c1ccc(C2=CCNCC2)c(COc2ccccc2C(F)(F)F)c1` ?
A) > 5.52

More entries:
Q) Lab request: please report pKi under test system Beta-secretase 1 (Homo sapiens) for `Cc1ncc2c(n1)C[C@@](C)(c1cc(NC(=O)c3ccc(F)cn3)ccc1F)NC2=N`
A) 7.77

Q) Could you share what pKi was measured for `FC(F)(F)c1ccccc1OCc1cc(-c2cccc3ccccc23)c(COc2ccccc2C(F)(F)F)cc1C1=CCNCC1` , tested on Beta-secretase 1 (Homo sapiens)?
A) > 5.52

Q) // map `COc1nc(N2C[C@H]3C(=O)N(C)C(=N)N[C@@]3(c3ccc(F)cc3)C2)nc(C2CC2)c1F` to recorded pKi (system: Beta-secretase 1 (Homo sapiens))
A) 8.32

Q) Find pKi (Beta-secretase 1 (Homo sapiens)) for the entry `COc1cnc(C(=O)Nc2ccc(F)c([C@@]3(C)N=C(N)[C@@](C)(F)CC3(F)F)c2)nc1`
A) 7.54

Q) Hi! What's the reported pKi for `O=C(OCc1ccc(COc2ccccc2C(F)(F)F)cc1C1=CCNCC1)Oc1ccc2ccccc2c1` on Beta-secretase 1 (Homo sapiens)?
A) > 5.52
